# experimental target: Sodium-dependent serotonin transporter (Homo sapiens)
# Sequence (P31645 whole entry): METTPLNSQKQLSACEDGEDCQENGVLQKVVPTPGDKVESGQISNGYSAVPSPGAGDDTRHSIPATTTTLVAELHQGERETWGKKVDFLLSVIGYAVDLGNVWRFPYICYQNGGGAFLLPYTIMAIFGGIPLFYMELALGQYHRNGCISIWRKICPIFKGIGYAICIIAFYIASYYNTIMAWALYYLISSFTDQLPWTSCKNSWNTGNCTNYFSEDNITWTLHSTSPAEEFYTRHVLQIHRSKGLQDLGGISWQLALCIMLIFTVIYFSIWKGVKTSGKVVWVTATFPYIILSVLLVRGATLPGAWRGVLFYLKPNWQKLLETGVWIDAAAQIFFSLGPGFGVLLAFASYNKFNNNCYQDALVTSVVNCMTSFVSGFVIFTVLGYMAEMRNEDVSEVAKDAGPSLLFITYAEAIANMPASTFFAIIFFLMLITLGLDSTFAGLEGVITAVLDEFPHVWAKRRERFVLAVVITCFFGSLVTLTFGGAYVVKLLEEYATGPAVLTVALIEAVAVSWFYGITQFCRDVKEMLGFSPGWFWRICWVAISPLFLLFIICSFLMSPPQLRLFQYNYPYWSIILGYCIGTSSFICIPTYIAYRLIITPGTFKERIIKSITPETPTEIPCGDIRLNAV
Decision: IC50 beneath 4 µM gives 1; IC50 meeting or exceeding 4 µM gives 0.

compound | class label
COC(=O)C1=C(c2ccccc2)CC2CCC1O2 (configuration not stated) | 0
COC(=O)C1=C(c2ccc(F)cc2)CC2CCC1S2 (configuration not stated) | 0
COC(=O)C1=C(c2ccc(Cl)c(Cl)c2)CC2CCC1S2 (configuration not stated) | 1
COC(=O)C1=C(c2ccccc2)CC2CCC1S2 (configuration not stated) | 0
COC(=O)C1=C(c2ccc(I)cc2)CC2CCC1S2 (configuration not stated) | 0
COC(=O)C1=C(c2ccc(I)cc2)CC2CCC1O2 (configuration not stated) | 0
COC(=O)C1=C(c2ccc(Br)cc2)CC2CCC1S2 (configuration not stated) | 0
COC(=O)C1=C(c2ccc3ccccc3c2)CC2CCC1S2 (configuration not stated) | 1
COC(=O)C1=C(c2ccc(Cl)cc2)CC2CCC1S2 (configuration not stated) | 0
COC(=O)C1=C(c2ccc(F)cc2)CC2CCC1O2 (configuration not stated) | 0
COC(=O)C1=C(c2ccc(Cl)cc2)CC2CCC1O2 (configuration not stated) | 0
COC(=O)C1=C(c2ccc(Br)cc2)CC2CCC1O2 (configuration not stated) | 0
